MEASURED ON: ATP-dependent translocase ABCB1 (Homo sapiens)
Sequence (P08183 whole entry): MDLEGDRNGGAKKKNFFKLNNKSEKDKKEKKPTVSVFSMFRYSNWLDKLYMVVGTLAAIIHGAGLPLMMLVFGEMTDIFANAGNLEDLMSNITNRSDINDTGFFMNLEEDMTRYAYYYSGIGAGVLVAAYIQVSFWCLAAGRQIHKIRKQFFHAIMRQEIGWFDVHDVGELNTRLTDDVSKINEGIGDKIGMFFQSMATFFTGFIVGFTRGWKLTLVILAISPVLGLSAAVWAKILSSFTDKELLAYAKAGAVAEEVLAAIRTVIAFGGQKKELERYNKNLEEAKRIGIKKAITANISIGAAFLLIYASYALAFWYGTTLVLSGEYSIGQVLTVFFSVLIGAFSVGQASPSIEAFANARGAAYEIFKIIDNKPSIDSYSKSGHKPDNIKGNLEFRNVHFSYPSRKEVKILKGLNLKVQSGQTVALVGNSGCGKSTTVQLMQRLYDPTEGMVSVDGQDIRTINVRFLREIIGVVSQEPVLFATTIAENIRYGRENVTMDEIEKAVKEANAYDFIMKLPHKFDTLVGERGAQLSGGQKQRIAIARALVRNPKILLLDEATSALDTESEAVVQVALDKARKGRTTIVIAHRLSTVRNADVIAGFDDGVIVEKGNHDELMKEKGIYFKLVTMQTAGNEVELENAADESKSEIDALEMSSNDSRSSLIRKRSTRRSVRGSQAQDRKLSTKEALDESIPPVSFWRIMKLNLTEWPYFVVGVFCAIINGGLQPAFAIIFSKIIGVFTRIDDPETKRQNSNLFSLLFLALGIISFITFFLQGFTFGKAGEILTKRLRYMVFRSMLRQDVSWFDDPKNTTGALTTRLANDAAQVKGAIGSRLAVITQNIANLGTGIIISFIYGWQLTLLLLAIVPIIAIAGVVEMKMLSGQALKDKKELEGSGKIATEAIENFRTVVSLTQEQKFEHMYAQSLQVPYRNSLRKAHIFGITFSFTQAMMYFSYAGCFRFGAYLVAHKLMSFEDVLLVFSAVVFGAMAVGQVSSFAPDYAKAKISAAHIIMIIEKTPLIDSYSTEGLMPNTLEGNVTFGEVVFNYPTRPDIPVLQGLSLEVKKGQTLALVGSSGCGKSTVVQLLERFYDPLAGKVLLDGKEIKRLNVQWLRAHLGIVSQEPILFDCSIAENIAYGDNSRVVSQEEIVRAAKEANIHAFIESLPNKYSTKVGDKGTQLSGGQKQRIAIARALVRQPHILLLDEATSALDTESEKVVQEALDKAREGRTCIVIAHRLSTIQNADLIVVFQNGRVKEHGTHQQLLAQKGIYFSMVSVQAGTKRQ
TEST DETAILS: Reversal of P-gp mediated doxorubicin resistance in human SW620 Ad300 cells overexpressing P-gp at 30 uM after 48 hrs by MTT assay
Assay type: cell-based
PROTOCOL CONDITIONS: sw-620, 48 h
RESULT TYPE: Activity

- MOLECULE: "COc1cc(C)cc2c1C(=O)c1c(cc(O)c(OC)c1O)C2=O"
  RESULT TYPE: "Activity"
  MEASUREMENT: "Not Active"
- MOLECULE: "COc1cc(C)cc2c1C(=O)c1c(cc(O)c(OC)c1O)[C@H]2[C@@H]1c2cc(C)cc(OC)c2C(=O)c2c(O)cc(O)c(Cl)c21"
  RESULT TYPE: "Activity"
  MEASUREMENT: "Not Active"
- MOLECULE: "COc1cc(C)cc2c1C(=O)c1c(O)cc(O)cc1[C@@H]2[C@@H]1c2cc(C)cc(OC)c2C(=O)c2c(O)cc(O)c(Cl)c21"
  RESULT TYPE: "Activity"
  MEASUREMENT: "Not Active"
- MOLECULE: "COc1cc(C)cc2c1C(=O)c1c(O)cc(O)c(Cl)c1C2O (configuration not stated)"
  RESULT TYPE: "Activity"
  MEASUREMENT: "Not Active"
- MOLECULE: "COc1cc(C)cc2c1C(=O)c1c(O)cc(O)c(Cl)c1[C@@H]2[C@@H]1c2cc(C)cc(OC)c2C(=O)c2c(O)cc(O)c(Cl)c21"
  RESULT TYPE: "Activity"
  MEASUREMENT: "Not Active"
- MOLECULE: "COc1cc(C)cc2c1C(=O)c1c(cc(O)c(OC)c1O)[C@@H]2[C@@H]1c2cc(C)cc(OC)c2C(=O)c2c(O)cc(O)c(Cl)c21"
  RESULT TYPE: "Activity"
  MEASUREMENT: "Not Active"
- MOLECULE: "COc1cc(C)cc2c1C(=O)c1c(O)cc(O)c(Cl)c1[C@@H]2[C@H]1c2cc(C)cc(OC)c2C(=O)c2c(O)cc(O)c(Cl)c21"
  RESULT TYPE: "Activity"
  MEASUREMENT: "Not Active"
